system: OVCAR-3; experiment: NCI tumour cell line growth inhibition, 48 h
The source made the active and inactive calls. Rule as the data show it: active = GI50 up to about 1.1 µM and inactive = higher. Non-standard residues stand in square brackets, D forms with d. Residues, ends and D or L forms follow the SMILES beside them. *: point of attachment. Ac5c = NC1(C(=O)O)CCCC1; Cbz = O=C(OCc1ccccc1)*; Boc = CC(C)(C)OC(=O)*; tBu = CC(C)(C)*
Below: a set of entries, each annotated with reported GI50.

compound: CCOC(=O)[C@]12C3C=CC(C3)C1C(=O)C1OC12 (stereo partly drawn)
GI50: > 100 µM (inactive)
--
compound: O=C1OC2C(O)COC2(O)C1(O)Cc1c[nH]c2ccccc12.O=C1OC2C(O)COC2(OCc2c[nH]c3ccccc23)C1O (stereo not drawn)
GI50: > 100 µM (inactive)
--
compound: COC(=O)C1(NC(=O)C(Cc2ccccc2)NC(=O)C(NC(=O)C(CCCCNC(=O)OC(C)(C)C)NC(=O)C(Cc2c[nH]c3ccccc23)NC(=O)C(Cc2ccccc2)NC(=O)OCc2ccccc2)C(C)OC(C)(C)C)CCCC1 (stereo not drawn) (Cbz-FWK(Boc)T(tBu)F[Ac5c]-OMe; configuration not given here)
GI50: > 100 µM (inactive)

Data credit: ChEMBL document CHEMBL1201862
